Listed below: pIC50 values for each entry.
test system: CCRF-CEM; assay: Cytotoxicity against CCRF-CEM human leukemic lymphoblastoid cell lines; type: functional, cell-based
Keep in mind that pIC50 stands for -log10 of concentration in molar terms.

1. Nc1ccn([C@@H]2O[C@H](CO)[C@@H](O)[C@@H]2O)c(=O)n1 [CYTARABINE] | 7.70

Please find the next compound below.
Ask: Find pIC50 for Nc1ccn([C@@H]2O[C@H](CO)[C@@H](O)[C@@H]2O[N+](=O)[O-])c(=O)n1 on CCRF-CEM and write it down.
Result: 6.22
